Test system: glucose-6-phosphate dehydrogenase-6-phosphogluconolactonase (Plasmodium falciparum 3D7)
Assay: inhibition of malaria parasite G6PD (PfGluPho) – biochemical, fluorescence intensity, uHTS, primary screen (AID 504690)
Details: PfGluPho enzyme, NADPH resazurin-diaphorase fluorescence; at 20 µM
Among all 350,000 compounds or so, about 2,700 (0.77%) were called active.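 How the source made its calls: active means inhibition reaching at least a set limit at 20 µM in the primary screen (cut at about 59% in these data); inactive means the rest.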 This is one part of a sample in which actives are shown more often than they occur.
Valid outcomes are listed here; reply with one: active, inactive

Reference set (2 entries):
1. O=S(=O)(Nc1cccc(Oc2ccc(Cl)cc2)n1)c1ccc(F)cc1
inactive
2. CCOC(=O)N1CCN(Cc2nc(Cc3cccc(C(F)(F)F)c3)no2)CC1
inactive

Recorded test outcome, item `O=C(CN1CCN(c2ccc(F)cc2)CC1)Nc1cccc(C(F)(F)F)c1`
inactive

Fill in: this test's call for COc1ccc(OCc2nnc3n2N=C(c2ccccc2)C(CC(=O)O)S3)cc1 (centres undefined) is ___
active

Just curious, what result did `O=C(CCc1ccc(O)cc1)NN=Cc1cc(Br)ccc1O` get here?
inactive
